- target-or-test-system: APJ receptor (Homo sapiens (Human))
- run-description: [35S]GTPγS binding assay on membranes from CHO cells stably expressing human APJ receptor
- test-settings: membranes of CHO cells stably expressing human APJ receptor, means of several independent experiments, read-out: Activity hAPJ SPA EC50 IP
# Lookup of reported pEC50 keyed by entry
pEC50 is defined as minus the log10 of a concentration measured in mol/L.

// below: answered compounds
>  <compound>
CC[C@H](Cc1ncc(F)cn1)S(=O)(=O)Nc1nnc(-c2ccc(C)o2)n1-c1c(OC)cccc1OC (single isomer, unassigned) [Example 134.0]

>  <pEC50>
8.00

$$$$
>  <compound>
COC[C@@H](Cc1ncc(F)cn1)S(=O)(=O)Nc1nnc(-c2ccc(C)o2)n1-c1c(OC)cccc1OC (single isomer, unassigned) [Example 78.0]

>  <pEC50>
9.11

$$$$

Consider now this further compound.
In: pEC50 for COc1cccc(OC)c1-n1c(NS(=O)(=O)CCc2ncc(Cl)cc2CCN2CCC2)nnc1-c1ccco1 ?
Out: 9.25

----------
- target-or-test-system: APJ receptor (Homo sapiens (Human), UniProt P35414)
- Sequence (P35414 whole entry): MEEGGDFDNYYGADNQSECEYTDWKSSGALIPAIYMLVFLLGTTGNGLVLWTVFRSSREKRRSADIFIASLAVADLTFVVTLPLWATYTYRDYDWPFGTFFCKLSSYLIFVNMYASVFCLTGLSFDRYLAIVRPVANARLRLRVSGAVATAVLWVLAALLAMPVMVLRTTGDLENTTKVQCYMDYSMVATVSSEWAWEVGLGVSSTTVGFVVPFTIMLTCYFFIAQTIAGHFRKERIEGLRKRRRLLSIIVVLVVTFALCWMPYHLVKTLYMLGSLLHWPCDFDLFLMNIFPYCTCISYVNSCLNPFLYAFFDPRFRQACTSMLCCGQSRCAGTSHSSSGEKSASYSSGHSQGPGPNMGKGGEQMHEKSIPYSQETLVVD
- run-description: [35S]GTPγS binding assay on membranes from CHO cells stably expressing human APJ receptor
- test-settings: membranes of CHO cells stably expressing human APJ receptor, means of several independent experiments, read-out: Activity hAPJ SPA EC50 IP
test-readout: pEC50
pEC50 is defined as minus the log10 of a concentration measured in mol/L.

>  <compound>
COc1cccc(OC)c1-n1c(NS(=O)(=O)[C@@H]2CC[C@@H](O)[C@H](O)C2)nnc1-c1ccc(C)o1 (single isomer, unassigned) [Example 407.0]

>  <pEC50>
6.74

$$$$
>  <compound>
COc1cccc(OC)c1-n1c(NS(=O)(=O)[C@@H](C)[C@@H](O)c2coc(C)n2)nnc1-c1ccc(C)o1 (single isomer, unassigned) [Example 55.0]

>  <pEC50>
7.55

$$$$
>  <compound>
COc1cccc(OC)c1-n1c(NS(=O)(=O)[C@H](C)Cc2ncc(Cl)cn2)nnc1-c1ccco1 (single isomer, unassigned)

>  <pEC50>
8.44

$$$$
>  <compound>
COc1cccc(OC)c1-n1c(NS(=O)(=O)[C@H](C)[C@H](O)c2ccnc3c2OCCC3)nnc1-c1ccc(C)o1 (racemic)

>  <pEC50>
8.30

$$$$
>  <compound>
C[C@@H](Cc1ncc(F)cn1)S(=O)(=O)Nc1nnc(-c2ccco2)n1-c1ccccc1C(F)(F)F

>  <pEC50>
6.38

$$$$

In: pEC50 for COc1cccc(OC)c1-n1c(NS(=O)(=O)[C@H](C)Cc2ccc(C#N)cn2)nnc1-c1ccco1 (single isomer, unassigned) ?
Out: 8.92

In: Also, COc1cccc(OC)c1-n1c(NS(=O)(=O)[C@H](C)[C@@H](O)c2ccc(C#N)c(C)n2)nnc1-c1ccc(C)o1 (racemic) please.
Out: 9.29

In: Also, COc1cccc(OC)c1-n1c(NS(=O)(=O)[C@@H](C)C2(O)COC2)nnc1-c1ccc(C)o1 (single isomer, unassigned) please.
Out: 6.72

In: Also, COc1cccc(OC)c1-n1c(NS(=O)(=O)[C@H](C)Cc2ncc(F)cc2NC(C)=O)nnc1-c1ccco1 (racemic) please.
Out: 9.32

In: Also, COc1cccc(OC)c1-n1c(NS(=O)(=O)[C@@H](C)[C@H](C)c2ncc(F)cn2)nnc1-c1ccc(C)o1 [Example 56.0] please.
Out: 10.15

In: Also, COc1cccc(OC)c1-n1c(NS(=O)(=O)[C@H](C)[C@@H](O)c2cn(C)cn2)nnc1-c1ccc(C)o1 (racemic) please.
Out: 8.85

In: Also, [2H]C([2H])([2H])c1ccc(-c2nnc(NS(=O)(=O)[C@@H](C)[C@H](C)c3ncc(F)cn3)n2-c2c(OC)ncnc2OC)o1 please.
Out: 9.59

----------
- target-or-test-system: APJ receptor (Homo sapiens (Human), UniProt P35414)
- run-description: [35S]GTPγS binding assay on membranes from CHO cells stably expressing human APJ receptor
- test-settings: membranes of CHO cells stably expressing human APJ receptor, means of several independent experiments, read-out: Activity hAPJ SPA EC50 IP
# Lookup of reported pEC50 keyed by entry
pEC50 is defined as minus the log10 of a concentration measured in mol/L.

// below: answered compounds
>  <compound>
COc1cccc(OC)c1-n1c(NS(=O)(=O)[C@@H]2COCC[C@@H]2O)nnc1-c1ccc(C)o1 (single isomer, unassigned) [Example 402.0]

>  <target-or-test-system>
APJ receptor (Homo sapiens (Human), UniProt P35414)

>  <result-number>
7.19

$$$$
>  <compound>
COc1cccc(OC)c1-n1c(NS(=O)(=O)C[C@@](C)(F)c2ncc(C#N)cn2)nnc1-c1ccc(C)o1 (single isomer, unassigned) [Example 231.0]

>  <target-or-test-system>
APJ receptor (Homo sapiens (Human), UniProt P35414)

>  <result-number>
9.36

$$$$

In: pEC50 for COc1cccc(OC)c1-n1c(NS(=O)(=O)[C@@H]2C[C@@H](c3ccc(F)cc3)CN(C(C)=O)C2)nnc1-c1ccc(C)o1 (single isomer, unassigned) [Example 171.0] ?
Out: 8.92

----------
- target-or-test-system: APJ receptor (Homo sapiens (Human))
- run-description: [35S]GTPγS binding assay on membranes from CHO cells stably expressing human APJ receptor
- test-settings: membranes of CHO cells stably expressing human APJ receptor, means of several independent experiments, read-out: Activity hAPJ SPA EC50 IP
- Procedure: The human APJ receptor was cloned by polymerase chain reaction and the gene encoding the receptor was subcloned in pFLAG-CMV™-3 expression vector (Sigma, Saint Louis, Mo. USA) in-house at Amgen. […] The optimum experimental conditions for the concentrations of GDP, MgCl2, and NaCl in the assay buffer were initially determined. […] Nonspecific binding was determined in the presence of 100 μM GTPγS and was always less than 0.2% of total binding. […]
test-readout: pEC50
pEC50 is defined as minus the log10 of a concentration measured in mol/L.

// below: answered compounds
>  <compound>
COc1cccc(OC)c1-n1c(NS(=O)(=O)[C@@H]2CCCN(C(=O)N(C)C)C2)nnc1-c1ccco1 (single isomer, unassigned)

>  <pEC50>
7.12

$$$$
>  <compound>
COCC[C@@H](Cc1ncc(C)cn1)S(=O)(=O)Nc1nnc(-c2ccc(C)o2)n1-c1c(OC)cccc1OC (single isomer, unassigned) [Example 71.0]

>  <pEC50>
9.33

$$$$
>  <compound>
COc1cccc(OC)c1-n1c(NS(=O)(=O)C[C@@](C)(O)c2ncc(C#N)cn2)nnc1-c1ccc(C)o1 (single isomer, unassigned)

>  <pEC50>
8.80

$$$$
>  <compound>
COc1cccc(OC)c1-n1c(NS(=O)(=O)[C@H]2C[C@@H](O)CN(c3ncc(F)cn3)C2)nnc1-c1ccc(C)o1 (racemic) [Example 332.0]

>  <pEC50>
9.35

$$$$
>  <compound>
COc1cccc(OC)c1-n1c(NS(=O)(=O)[C@H](C)[C@@H](O)c2ccc(C)cn2)nnc1-c1ccc(C)o1 (single isomer, unassigned)

>  <pEC50>
9.51

$$$$
>  <compound>
COc1ncnc(OC)c1-n1c(NS(=O)(=O)CCc2ccc(Cl)cc2)nnc1-c1ccco1

>  <pEC50>
7.82

$$$$
>  <compound>
COc1cccc(OC)c1-n1c(NS(=O)(=O)[C@H]2C[C@@H](O)CN(c3ncc(F)cc3C#N)C2)nnc1-c1ccc(C)o1 (mixture of isomers) [Example 330.0]

>  <pEC50>
9.37

$$$$
>  <compound>
CCO[C@@H](c1ncc(C)cn1)[C@H](C)S(=O)(=O)Nc1nnc(-c2ccc(C)o2)n1-c1c(OC)cccc1OC (single isomer, unassigned)

>  <pEC50>
10.21

$$$$

Consider now this further compound.
In: pEC50 for CO[C@H](c1ncc(Cl)cn1)[C@H](C)S(=O)(=O)Nc1nnc(-c2ccc(C)o2)n1C(C)C ?
Out: 7.43

----------
- target-or-test-system: APJ receptor (Homo sapiens (Human), UniProt P35414)
- run-description: [35S]GTPγS binding assay on membranes from CHO cells stably expressing human APJ receptor
- test-settings: membranes of CHO cells stably expressing human APJ receptor, means of several independent experiments, read-out: Activity hAPJ SPA EC50 IP
test-readout: pEC50
pEC50 is defined as minus the log10 of a concentration measured in mol/L.

// below: answered compounds
>  <compound>
COc1ncnc(OC)c1-n1c(NS(=O)(=O)[C@@H](C)[C@@H](OC(C)C)c2ncc(C)cn2)nnc1-c1ccc(C)o1 [Example 401.0]

>  <result-number>
9.28

$$$$
>  <compound>
CCc1ccc(-c2nnc(NS(=O)(=O)[C@@H](C)Cc3ncc(F)cn3)n2-c2c(OC)cccc2OC)o1 (single isomer, unassigned) [Example 99.0]

>  <result-number>
9.00

$$$$
>  <compound>
COc1cccc(OC)c1-n1c(NS(=O)(=O)[C@@H](C)Cc2ncc(F)c(C)n2)nnc1-c1ccco1 (racemic) [Example 234.0]

>  <result-number>
9.27

$$$$
>  <compound>
COc1cccc(OC)c1-n1c(NS(=O)(=O)C[C@](C)(O)c2ncc(C#N)cn2)nnc1-c1ccc(C)o1 (single isomer, unassigned) [Example 233.0]

>  <result-number>
9.30

$$$$
>  <compound>
COc1cccc(OC)c1-n1c(NS(=O)(=O)[C@@H](C)[C@H](O)c2ccc(Cl)cc2S(C)(=O)=O)nnc1-c1ccc(C)o1 (single isomer, unassigned) [Example 157.0]

>  <result-number>
9.41

$$$$

Consider now this further compound.
In: pEC50 for COc1cccc(OC)c1-n1c(NS(=O)(=O)[C@@H](C)[C@H](C)c2ncc(C)cn2)nnc1-c1ccc(C)o1 [Example 262.0] ?
Out: 10.15
